// provenance: ChEMBL document CHEMBL3603838

ASSAY_NAME: Selectivity index, ratio of CC50 for human MRC5 cells to MIC for Mycobacterium tuberculosis H37Rv
Format: toxicity, cell-based
CONDITION_LABEL: read-out: Selectivity Index
ASSAY_METRIC: selectivity ratio

{"CHEMICAL_STRUCTURE": "NNC(=O)c1ccncc1", "selectivity ratio": "> 125"}
{"CHEMICAL_STRUCTURE": "CC[C@@H](CO)NCCN[C@@H](CC)CO", "selectivity ratio": "> 5"}

Turning now to a further record.
Task item: Give its selectivity ratio value. Item: N=C(N)NCCc1cc2c(O)c(c1)Cc1cc(CCNC(=N)N)cc(c1O)Cc1cc(CCNC(=N)N)cc(c1O)Cc1cc(CCNC(=N)N)cc(c1O)C2
Reply: > 256
